Target: human TLR7 (hTLR7) (Homo sapiens, UniProt Q9NYK1)
Construct: host or cells: HEK293 (HEK-Blue hTLR7)
Sequence (Q9NYK1 27-1049): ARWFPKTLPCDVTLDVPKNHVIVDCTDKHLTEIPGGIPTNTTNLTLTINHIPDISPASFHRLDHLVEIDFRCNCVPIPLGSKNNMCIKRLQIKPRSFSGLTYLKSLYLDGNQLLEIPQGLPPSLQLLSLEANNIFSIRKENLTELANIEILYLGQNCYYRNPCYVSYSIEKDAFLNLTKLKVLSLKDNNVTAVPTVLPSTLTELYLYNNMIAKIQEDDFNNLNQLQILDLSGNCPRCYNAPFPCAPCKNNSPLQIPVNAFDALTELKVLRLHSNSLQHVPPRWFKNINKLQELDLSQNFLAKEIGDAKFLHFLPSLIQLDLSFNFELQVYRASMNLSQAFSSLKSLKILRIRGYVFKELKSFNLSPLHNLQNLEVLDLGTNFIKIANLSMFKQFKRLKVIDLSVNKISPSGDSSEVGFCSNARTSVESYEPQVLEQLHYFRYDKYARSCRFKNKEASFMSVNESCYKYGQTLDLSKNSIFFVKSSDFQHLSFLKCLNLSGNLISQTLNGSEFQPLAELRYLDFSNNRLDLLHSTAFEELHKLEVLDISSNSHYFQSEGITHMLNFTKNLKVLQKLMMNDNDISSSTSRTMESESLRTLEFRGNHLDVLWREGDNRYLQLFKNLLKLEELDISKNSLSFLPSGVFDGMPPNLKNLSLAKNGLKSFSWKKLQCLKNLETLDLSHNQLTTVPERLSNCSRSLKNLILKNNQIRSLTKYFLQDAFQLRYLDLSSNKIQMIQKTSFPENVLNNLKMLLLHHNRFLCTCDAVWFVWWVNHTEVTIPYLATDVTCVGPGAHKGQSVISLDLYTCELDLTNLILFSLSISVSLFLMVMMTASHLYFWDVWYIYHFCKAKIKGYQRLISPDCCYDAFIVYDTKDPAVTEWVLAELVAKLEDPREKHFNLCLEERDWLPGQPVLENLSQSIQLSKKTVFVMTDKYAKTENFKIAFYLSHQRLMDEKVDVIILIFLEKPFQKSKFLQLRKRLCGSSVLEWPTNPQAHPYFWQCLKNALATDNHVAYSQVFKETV
Assay: HEK-Blue hTLR7 cell assay (NF-kB/AP-1 driven SEAP reporter)
Assay type: cell-based
Conditions: HEK-Blue hTLR7 cells, 16 h incubation, SEAP read at 620-655 nm; read-out: HEK-TLR7 EC50
What pEC50 was measured for each of the following?
Here pEC50 is given on a logarithmic scale as minus log10 of the concentration in mol/L.

Hello, please tell me recorded pEC50 for this one: CCCC[C@@H](CCS(C)(=O)=O)Nc1nc(N)nc(C)c1Cc1cc(CC(=O)NCCCC[C@H](NC(C)=O)C(=O)O)ccc1OC [Compound 1-lysine conjugate] 7.00

For CCCC[C@@H](CCS(C)(=O)=O)Nc1nc(N)nc(C)c1Cc1cc(CC(=O)O)ccc1OC , write its pEC50. 7.00

Tell me its pEC50 given CCCC[C@@H](CCS(C)(=O)=O)Nc1nc(N)nc(C)c1Cc1cc(CC(=O)N[C@@H](C)C(=O)O)ccc1OC [Compound 1-alanine conjugate] as the entry. 7.00
